All values here come from patent US20230117034A1.

Target: CDK9/CycT1 (Homo sapiens, UniProt P50750)
Construct: Recombinant full-length His-tagged human CDK9 and CycT1; purchased Life Technologies PV4131; host or cells: insect cells
Sequence (P50750 whole entry): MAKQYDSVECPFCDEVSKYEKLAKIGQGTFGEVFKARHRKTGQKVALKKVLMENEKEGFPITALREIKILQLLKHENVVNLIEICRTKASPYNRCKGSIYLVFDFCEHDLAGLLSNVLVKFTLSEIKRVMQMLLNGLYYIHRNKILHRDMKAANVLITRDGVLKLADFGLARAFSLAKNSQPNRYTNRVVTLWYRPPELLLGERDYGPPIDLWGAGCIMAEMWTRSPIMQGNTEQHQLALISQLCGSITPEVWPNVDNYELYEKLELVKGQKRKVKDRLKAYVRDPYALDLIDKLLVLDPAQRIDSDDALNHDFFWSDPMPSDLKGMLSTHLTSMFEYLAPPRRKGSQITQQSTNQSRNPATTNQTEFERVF
Sequence (O60563 whole entry partner): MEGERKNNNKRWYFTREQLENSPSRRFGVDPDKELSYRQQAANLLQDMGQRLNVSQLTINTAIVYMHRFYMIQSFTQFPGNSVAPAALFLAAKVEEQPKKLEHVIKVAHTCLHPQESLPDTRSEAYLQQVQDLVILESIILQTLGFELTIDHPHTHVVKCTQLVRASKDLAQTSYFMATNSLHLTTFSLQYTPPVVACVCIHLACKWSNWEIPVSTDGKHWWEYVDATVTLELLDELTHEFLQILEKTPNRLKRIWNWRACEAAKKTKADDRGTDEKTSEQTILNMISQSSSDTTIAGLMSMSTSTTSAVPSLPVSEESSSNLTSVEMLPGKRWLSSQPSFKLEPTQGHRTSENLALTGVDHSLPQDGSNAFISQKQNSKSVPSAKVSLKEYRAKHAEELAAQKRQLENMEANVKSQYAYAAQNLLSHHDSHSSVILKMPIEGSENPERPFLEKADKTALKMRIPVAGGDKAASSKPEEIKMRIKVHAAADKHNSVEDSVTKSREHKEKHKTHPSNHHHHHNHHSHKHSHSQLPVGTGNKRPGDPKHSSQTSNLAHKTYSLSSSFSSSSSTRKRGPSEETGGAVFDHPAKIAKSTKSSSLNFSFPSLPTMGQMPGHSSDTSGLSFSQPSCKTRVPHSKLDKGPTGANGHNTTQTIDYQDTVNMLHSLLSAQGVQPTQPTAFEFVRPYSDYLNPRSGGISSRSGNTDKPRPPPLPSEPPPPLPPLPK
Test: CDK9/CycT1 high ATP kinase assay (TR-FRET, 2 mM ATP)
Assay type: biochemical
Conditions: 2 mM ATP (high ATP); median; read-out: CDK9/CyclinT1, 2 mM ATP (high ATP), IC50 (median)
Here, each record is paired with measured IC50 data.

# compound, measured on, IC50
data = [
    ("Fc1ccc2[nH]c(CNc3nc(N4CCN5CCC4CC5)nc4c(C(F)(F)F)cnn34)nc2c1F", "CDK9/CycT1 (Homo sapiens, UniProt P50750)", "> 20 µM"),
    ("CN1CCN(c2nc(NCc3nnc(-c4ccccc4)[nH]3)n3ncc(Br)c3n2)CC1=O", "CDK9/CycT1 (Homo sapiens, UniProt P50750)", "10.1 µM"),
    ("CN(C)C1CCN(c2nc(NCc3nc4ccccc4[nH]3)n3ncc(Br)c3n2)CC1", "CDK9/CycT1 (Homo sapiens, UniProt P50750)", "> 20 µM"),
    ("FC(F)(F)c1cccc(-c2cnc(CNc3nc(N4CCOCC4)nc4c(Br)cnn34)[nH]2)c1", "CDK9/CycT1 (Homo sapiens, UniProt P50750)", "6.79 µM"),
    ("FC(F)(F)c1cnn2c(NCc3nnc(-c4ccccc4)[nH]3)nc(N3CCOCC3)nc12", "CDK9/CycT1 (Homo sapiens, UniProt P50750)", "4.23 µM"),
    ("Fc1ccc2[nH]c(CNc3nc(N4CCOCC4)nc4c(Cl)cnn34)nc2c1F", "CDK9/CycT1 (Homo sapiens, UniProt P50750)", "10 µM"),
    ("COC(C)(C)CNc1nc(NCc2nc3ccccc3[nH]2)n2ncc(Br)c2n1", "CDK9/CycT1 (Homo sapiens, UniProt P50750)", "> 20 µM"),
    ("CN1CCN(c2nc(NCc3nc4cc(Cl)ccc4[nH]3)n3ncc(Br)c3n2)CC1", "CDK9/CycT1 (Homo sapiens, UniProt P50750)", "> 20 µM"),
    ("COc1ccc2[nH]c(CNc3nc(N4CCOCC4)nc4c(Br)cnn34)nc2c1", "CDK9/CycT1 (Homo sapiens, UniProt P50750)", "> 20 µM"),
    ("Brc1cnn2c(NCc3nc4ccccc4[nH]3)nc(N3CCCC3)nc12", "CDK9/CycT1 (Homo sapiens, UniProt P50750)", "> 20 µM"),
]

# input for lookup
I have this compound here, `Brc1cnn2c(NCc3nc4ccccc4[nH]3)nc(N3CCNCC3)nc12` , and I need its recorded IC50.
> 20 µM

###

Target: CDK9/CycT1 (Homo sapiens)
Construct: Recombinant full-length His-tagged human CDK9 and CycT1; purchased Life Technologies PV4131; host or cells: insect cells
Assay: CDK9/CycT1 high ATP kinase assay (TR-FRET, 2 mM ATP)
Assay type: biochemical
Settings: 2 mM ATP (high ATP); median; read-out: CDK9/CyclinT1, 2 mM ATP (high ATP), IC50 (median)
quantity name: IC50

Worked examples follow.
# structure smiles string, result
records = [
    ("Fc1ccc2[nH]c(CNc3nc(N4CCOCC4)nc4c(CC(F)F)cnn34)nc2c1F.O=C(O)C(F)(F)F", "> 20 µM"),
    ("Cc1ccc2[nH]c(CNc3nc(N4CCNCC4)nc4c(Br)cnn34)nc2c1", "> 20 µM"),
    ("C[C@@H]1CN(c2nc(NCc3nc4ccccc4[nH]3)n3ncc(Br)c3n2)C[C@H](C)N1C", "> 20 µM"),
    ("CC(C)c1cnn2c(NCc3nnc(-c4ccccc4)[nH]3)nc(N3CCN(C)CC3)nc12", "> 20 µM"),
    ("NCCOCCOCCNc1nc(NCc2nc3ccccc3[nH]2)n2ncc(Br)c2n1", "> 20 µM"),
    ("OC[C@@H]1CCCCN1c1nc(NCc2nc3cc(F)ccc3[nH]2)n2ncc(C3CC3)c2n1", "7.34 µM"),
    ("Clc1ccccc1-c1nnc(CNc2nc(N3CCOCC3)nc3c(Br)cnn23)[nH]1", "8.35 µM"),
]

Missing value: IC50, CDK9/CycT1 (Homo sapiens), entry `COc1ccc2[nH]c(CNc3nc(N4C[C@@H](C)O[C@@H](C)C4)nc4c(Br)cnn34)nc2c1` . Fill in?
6.1 µM

###

Target: CDK12 (nuclear staining in CAL-120 cells) (Homo sapiens)
Construct: endogenous in cells; host or cells: CAL-120 human breast cancer cells (DSMZ ACC 459)
Sequence (Q9NYV4 whole entry): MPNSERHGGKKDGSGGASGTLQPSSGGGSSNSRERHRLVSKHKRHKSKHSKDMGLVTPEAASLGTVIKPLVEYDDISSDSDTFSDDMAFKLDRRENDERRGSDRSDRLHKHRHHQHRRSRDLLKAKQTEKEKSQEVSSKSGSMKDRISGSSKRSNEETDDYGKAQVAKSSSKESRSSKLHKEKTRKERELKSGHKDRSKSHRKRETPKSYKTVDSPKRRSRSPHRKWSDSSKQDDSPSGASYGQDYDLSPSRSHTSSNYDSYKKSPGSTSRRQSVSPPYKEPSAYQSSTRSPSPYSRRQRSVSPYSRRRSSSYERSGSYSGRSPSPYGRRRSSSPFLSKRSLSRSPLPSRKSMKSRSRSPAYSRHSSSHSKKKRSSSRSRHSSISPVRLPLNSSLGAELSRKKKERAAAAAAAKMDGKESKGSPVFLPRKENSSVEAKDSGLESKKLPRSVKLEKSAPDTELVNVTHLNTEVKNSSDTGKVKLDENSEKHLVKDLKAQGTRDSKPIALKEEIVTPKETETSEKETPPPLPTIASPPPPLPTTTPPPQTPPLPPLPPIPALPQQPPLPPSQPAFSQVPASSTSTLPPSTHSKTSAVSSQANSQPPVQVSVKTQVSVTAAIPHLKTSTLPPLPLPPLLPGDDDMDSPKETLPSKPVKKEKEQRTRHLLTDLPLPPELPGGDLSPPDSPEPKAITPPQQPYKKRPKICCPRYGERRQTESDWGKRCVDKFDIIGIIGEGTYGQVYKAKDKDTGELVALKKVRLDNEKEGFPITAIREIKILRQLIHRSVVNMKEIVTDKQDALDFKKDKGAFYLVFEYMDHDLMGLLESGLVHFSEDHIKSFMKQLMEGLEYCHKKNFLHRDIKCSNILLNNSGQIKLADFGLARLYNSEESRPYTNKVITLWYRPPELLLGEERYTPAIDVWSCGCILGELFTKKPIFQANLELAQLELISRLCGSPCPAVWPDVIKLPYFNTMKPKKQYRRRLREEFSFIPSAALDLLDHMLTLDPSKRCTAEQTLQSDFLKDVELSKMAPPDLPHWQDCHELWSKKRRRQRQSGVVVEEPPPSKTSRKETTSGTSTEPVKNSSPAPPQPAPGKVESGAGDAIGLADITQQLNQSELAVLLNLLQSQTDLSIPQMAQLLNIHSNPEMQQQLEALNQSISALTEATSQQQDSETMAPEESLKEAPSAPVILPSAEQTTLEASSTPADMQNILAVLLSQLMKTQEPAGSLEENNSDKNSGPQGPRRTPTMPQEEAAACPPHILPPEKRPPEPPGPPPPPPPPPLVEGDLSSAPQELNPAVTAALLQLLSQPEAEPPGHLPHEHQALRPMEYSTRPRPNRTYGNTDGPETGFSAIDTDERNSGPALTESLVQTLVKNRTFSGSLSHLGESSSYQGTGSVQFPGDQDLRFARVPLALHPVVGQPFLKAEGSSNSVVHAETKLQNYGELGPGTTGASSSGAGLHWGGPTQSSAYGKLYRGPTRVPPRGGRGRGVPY
Sequence (O75909 whole entry partner): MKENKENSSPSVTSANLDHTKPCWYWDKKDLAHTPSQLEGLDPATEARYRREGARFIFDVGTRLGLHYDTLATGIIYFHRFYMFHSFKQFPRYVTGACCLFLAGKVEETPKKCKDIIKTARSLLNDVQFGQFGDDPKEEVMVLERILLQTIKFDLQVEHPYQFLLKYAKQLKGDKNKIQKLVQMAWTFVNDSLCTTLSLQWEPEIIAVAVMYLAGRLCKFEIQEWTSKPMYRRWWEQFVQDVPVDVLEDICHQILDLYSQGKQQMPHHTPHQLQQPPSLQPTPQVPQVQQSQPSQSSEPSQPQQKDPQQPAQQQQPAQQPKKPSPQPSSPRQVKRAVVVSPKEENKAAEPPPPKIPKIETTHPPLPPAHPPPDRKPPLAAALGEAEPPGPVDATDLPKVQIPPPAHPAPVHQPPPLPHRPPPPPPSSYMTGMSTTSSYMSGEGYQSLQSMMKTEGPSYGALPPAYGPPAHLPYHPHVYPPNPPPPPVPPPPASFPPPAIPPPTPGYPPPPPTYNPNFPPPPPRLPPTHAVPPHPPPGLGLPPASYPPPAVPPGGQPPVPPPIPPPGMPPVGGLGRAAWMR
Assay: CDK12 nuclear protein level: immunofluorescence/high content analysis (CAL-120)
Type: cell-based
Conditions: ratio of IC50 CDK12 high ATP kinase assay to DC50 CDK12 degradation (IF, CAL-120)
Here, each record is paired with measured (IC50 CDK12 high ATP) to (Degradation DC50 CDK12) ratio data.
Please reply with the number alone, leaving off any unit.

# compound, result number
measured = [
    ("CN1CCN(c2nc(NCc3nc4c(F)c(Cl)ccc4[nH]3)n3ncc(Br)c3n2)CC1 [Example 373]", 2719),
    ("CN1CCN(c2nc(NCc3nc4c(F)c(F)ccc4[nH]3)n3ncc(C4CC4)c3n2)CC1 [Example 159]", 18457),
    ("FC1(F)CC1c1cnn2c(NCc3nc4ccccc4[nH]3)nc(N3CCOCC3)nc12 (stereo not drawn) [Example 279]", 2961),
    ("COC(=O)C1CCN(c2nc(NCc3nnc(-c4ccccc4)[nH]3)n3ncc(Br)c3n2)CC1 [Example 77]", 87),
    ("CC(C)c1cnn2c(NCc3nc4ccccc4[nH]3)nc(N(C)CC(C)(C)O)nc12 [Example 5]", 455),
    ("Fc1ccc2[nH]c(CNc3nc(N4CCOCC4)nc4c(C(F)(F)F)cnn34)nc2c1F [Example 426]", 32),
    ("Brc1cnn2c(NCc3nc4ccccc4[nH]3)nc(N3C[C@H]4CNC[C@H]4C3)nc12 [Example 283]", 2630),
    ("O[C@H]1CCN(c2nc(NCc3nc4ccccc4[nH]3)n3ncc(Br)c3n2)C1 [Example 224]", 407),
    ("Brc1cnn2c(NCc3nc4ccncc4[nH]3)nc(N3CCOCC3)nc12 [Example 22]", 40),
    ("CC1CN(c2nc(NCc3nc4ccccc4[nH]3)n3ncc(C(C)C)c3n2)CCO1 (racemic) [Example 11]", 251),
]

I have this compound here, CCc1cnn2c(NCc3nc4c(OC)cccc4[nH]3)nc(N3CCOCC3)nc12 [Example 433] , and I need its recorded (IC50 CDK12 high ATP) to (Degradation DC50 CDK12) ratio.
626

I have this compound here, Brc1cnn2c(NCc3ncc(-c4ccccc4)[nH]3)nc(N3CCOCC3)nc12 [Example 23] , and I need its recorded (IC50 CDK12 high ATP) to (Degradation DC50 CDK12) ratio.
452

I have this compound here, FC(F)(F)c1ccccc1-c1cnc(CNc2nc(N3CCOCC3)nc3c(Br)cnn23)[nH]1 [Example 88] , and I need its recorded (IC50 CDK12 high ATP) to (Degradation DC50 CDK12) ratio.
84

I have this compound here, OC[C@@H]1CCCCN1c1nc(NCc2nc3cc(F)ccc3[nH]2)n2ncc(C3CC3)c2n1 [Example 191] , and I need its recorded (IC50 CDK12 high ATP) to (Degradation DC50 CDK12) ratio.
548

I have this compound here, CN1CCN(c2nc(NCc3nc4cc(C(F)(F)F)ccc4[nH]3)n3ncc(C4CC4)c3n2)CC1 [Example 313] , and I need its recorded (IC50 CDK12 high ATP) to (Degradation DC50 CDK12) ratio.
679

###

Target: CDK2/CycE (Homo sapiens, UniProt P24941)
Experiment: CDK2/CycE kinase assay (TR-FRET, 2 mM ATP)
Details: 2 mM ATP (high ATP); median; read-out: CDK2/CyclinE, 2 mM ATP (high ATP), IC50 (median)
quantity name: pIC50
Friendly reminder that pIC50 comes from taking -log10 of the concentration in mol/L.

# compound, result number
measured = [
    ("OC[C@H]1CCCCN1c1nc(NCc2nnc(-c3ccccc3)[nH]2)n2ncc(Br)c2n1 [Example 71]", 5.65),
    ("Cc1ccc2[nH]c(CNc3nc(N4CCN(C)CC4)nc4c(Br)cnn34)nc2c1 [Example 158]", 5.28),
    ("CN(CC(C)(C)O)c1nc(NCc2nc3cc(Cl)c(Cl)cc3[nH]2)n2ncc(Br)c2n1 [Example 331]", 5.14),
    ("COc1cccc2[nH]c(CNc3nc(N4C[C@H]5C[C@@H]4CO5)nc4c(C5CC5)cnn34)nc12 [Example 198]", 5.00),
]

# input for lookup
Missing value: pIC50, CDK2/CycE (Homo sapiens, UniProt P24941), entry CCc1cnn2c(NCc3nc4c(F)c(F)ccc4[nH]3)nc(N3CCOCC3)nc12 [Example 432] . Fill in?
5.12
